// provenance: paper PMC10796322

# SYSTEM TESTED: T1, Med25-ACID_(532-680), activator interaction domain (ACID) of mediator complex subunit 25 (Arabidopsis thaliana, UniProt Q7XYY2 532-680)
# T1 construct: 15N- or 13C,15N-labelled in the NMR titrations; unlabelled in ITC, CEST and stopped-flow; also called AtMed25-ACID; ACID domain; source: E. coli BL21 DE3, purified (glutathione Sepharose, TEV cleavage, cation exchange, SEC); not shown: GST, N-terminal, cleaved
# T1 sequence (looked up): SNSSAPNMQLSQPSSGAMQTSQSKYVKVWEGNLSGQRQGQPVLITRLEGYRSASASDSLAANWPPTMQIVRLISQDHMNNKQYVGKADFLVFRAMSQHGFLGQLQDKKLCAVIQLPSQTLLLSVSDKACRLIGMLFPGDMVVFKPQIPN
# PROTOCOL DESCRIPTION: ITC; 25 °C; 50 mM HEPES pH 7.4, 100 mM NaCl, 0.5 mM TCEP; ~1:10 cell to syringe concentration ratio, cell around 15 µM for high-affinity fragments; one-set-of-sites model; which protein was in the cell is not stated
# CONDITION CONTEXT: both partners purified
# dH listing for each entry below
Form entry: value (kJ/mol) — number only.

// known answers, use as guide
DREB2A_(195-276) L237A (domain or fragment, Arabidopsis thaliana, UniProt O82132 195-276, looked up, source: E. coli BL21 DE3, purified (glutathione Sepharose, TEV cleavage, SEC); not shown: GST, N-terminal, cleaved) VKADKHWLSEFEHNYWSDILKEKEKQKEQGIVETCQQQQQDSASVADYGWPNDVDQSHLDSSDMFDVDELLRDLNGDDVFAG | -22.9
DREB2A_(195-276) F274A (domain or fragment, Arabidopsis thaliana, UniProt O82132 195-276, looked up, source: E. coli BL21 DE3, purified (glutathione Sepharose, TEV cleavage, SEC); not shown: GST, N-terminal, cleaved) VKADKHWLSEFEHNYWSDILKEKEKQKEQGIVETCQQQQQDSLSVADYGWPNDVDQSHLDSSDMFDVDELLRDLNGDDVAAG | -62
DREB2A_(195-276) W244A (domain or fragment, Arabidopsis thaliana, UniProt O82132 195-276, looked up, source: E. coli BL21 DE3, purified (glutathione Sepharose, TEV cleavage, SEC); not shown: GST, N-terminal, cleaved) VKADKHWLSEFEHNYWSDILKEKEKQKEQGIVETCQQQQQDSLSVADYGAPNDVDQSHLDSSDMFDVDELLRDLNGDDVFAG | -47
QDSLSVADYGWPNDVDQSHLDSSDMFDVDELLRDLNGDD (domain or fragment, Arabidopsis thaliana, UniProt O82132 234-272, looked up, DREB2A, Arabidopsis thaliana, AT5G05410, residues 234-272; source: E. coli BL21 DE3, purified (glutathione Sepharose, TEV cleavage, SEC); not shown: GST, N-terminal, cleaved) [DREB2A_(234-272)] | -43
DREB2A_(195-276) E263P (domain or fragment, Arabidopsis thaliana, UniProt O82132 195-276, looked up, also called helix-disrupting DREB2A E263P variant; source: E. coli BL21 DE3, purified (glutathione Sepharose, TEV cleavage, SEC); not shown: GST, N-terminal, cleaved) VKADKHWLSEFEHNYWSDILKEKEKQKEQGIVETCQQQQQDSLSVADYGWPNDVDQSHLDSSDMFDVDPLLRDLNGDDVFAG | -61.2

Ask: Consider the binder DREB2A_(195-335,Δ244-276) (domain or fragment, Arabidopsis thaliana, UniProt O82132 195-335, looked up, also called splice variant fragment; source: E. coli BL21 DE3, purified (glutathione Sepharose, TEV cleavage, SEC); not shown: GST, N-terminal, cleaved) VKADKHWLSEFEHNYWSDILKEKEKQKEQGIVETCQQQQQDSLSVADYGLNQDRYPGNSVANGSYRPESQQSGFDPLQSLNYGIPPFQLEGKDGNGFFDDLSYLDLEN and give its measured dH.
Reply: -59

Ask: Consider the binder DREB2A_(234-335) (domain or fragment, Arabidopsis thaliana, UniProt O82132 234-335, looked up, DREB2A, Arabidopsis thaliana, AT5G05410, residues 234-335; source: E. coli BL21 DE3, purified (glutathione Sepharose, TEV cleavage, SEC); not shown: GST, N-terminal, cleaved) QDSLSVADYGWPNDVDQSHLDSSDMFDVDELLRDLNGDDVFAGLNQDRYPGNSVANGSYRPESQQSGFDPLQSLNYGIPPFQLEGKDGNGFFDDLSYLDLEN and give its measured dH.
Reply: -58

Ask: Consider the binder DREB2A_(195-276) V239A (domain or fragment, Arabidopsis thaliana, UniProt O82132 195-276, looked up, source: E. coli BL21 DE3, purified (glutathione Sepharose, TEV cleavage, SEC); not shown: GST, N-terminal, cleaved) VKADKHWLSEFEHNYWSDILKEKEKQKEQGIVETCQQQQQDSLSAADYGWPNDVDQSHLDSSDMFDVDELLRDLNGDDVFAG and give its measured dH.
Reply: -42

Ask: Consider the binder DREB2A_(195-276) (domain or fragment, Arabidopsis thaliana, UniProt O82132 195-276, looked up, source: E. coli BL21 DE3, purified (glutathione Sepharose, TEV cleavage, SEC); not shown: GST, N-terminal, cleaved) VKADKHWLSEFEHNYWSDILKEKEKQKEQGIVETCQQQQQDSLSVADYGWPNDVDQSHLDSSDMFDVDELLRDLNGDDVFAG and give its measured dH.
Reply: -51.2
